biological target: SARS-CoV-2 nsp14 (Severe acute respiratory syndrome coronavirus 2, UniProt P0DTD1)
Parameter Measured: pIC50
Note on units: pIC50 is unitless, being -log10 of a concentration expressed in mol/L.

Find the recorded pIC50 belonging to Nc1ncnc2c1ncn2[C@@H]1O[C@H](CSCC[C@H](N)C(=O)O)[C@@H](O)[C@H]1O and report it.
6.89
